Data provenance: PubChem BioAssay (Tox21)

Experiment: qHTS assay to identify small molecule antagonists of the constitutive androstane receptor (CAR) signaling pathway - cell viability counter screen (AID 1224837); note: nearly all actives have a fitted effect of over 45% in size
Settings: HepG2-CYP2B6-hCAR viability, CellTiter-Fluor, 23 h, co-treated with 50 nM CITCO; series mostly up to 92.4 µM
Inconclusive results are not listed. Active and inactive are the calls of the source. Calls come from the whole dose curve; as a rule, active = well fitted cell-killing curve with a large enough effect in the repeat runs; inconclusive = weak or mixed curves, or effect the other way; inactive = flat fitted curve, though single readings scatter.
Classes used: active, inactive

1) CCC(C)[O-].CCC(C)[O-].CCOC(=O)/C=C(/C)[O-].[Al+3] = inactive
2) O=C1C(c2[nH]c3ccc(S(=O)(=O)O)cc3c2O)=Nc2ccc(S(=O)(=O)O)cc21 = inactive
3) CCN(CC)c1ccc2c(-c3ccc(S(=O)(=O)O)cc3S(=O)(=O)[O-])c3ccc(=[N+](CC)CC)cc-3oc2c1 = active
4) Cc1ccc(N/N=c2\c(=O)cc/c(=N\Nc3ccc(S(=O)(=O)O)cc3)c2=O)c(C)c1 = active
5) NC(=S)NC(N)=S = inactive
6) C=Cc1cccc(C)c1 = inactive
7) CC1=CCC(=C(C)C)CC1 = inactive
8) FC(F)(F)c1cccc(Cl)c1 = inactive
9) Cc1c2ccccc2c(C)c2c1ccc1ccccc12 = active
10) CC(CO)Oc1ccccc1 (centres undefined) = inactive
11) O=C(O)CCN(C1(C(=O)NO)CCCC1)S(=O)(=O)c1ccc(Oc2ccc(F)cc2)cc1 = inactive
12) CC1(C)CC(O)CC(C)(C)N1 = inactive
13) COC(=O)c1ccccc1OC = inactive
14) Cc1c(F)c(N2CCNC(C)C2)cc2c1c(=O)c(C(=O)O)cn2C1CC1 (centres undefined) = inactive
15) C#Cc1ccc(-c2ccccc2F)cc1 = inactive
16) O=S(=O)(O)c1ccc(Nc2nc(Nc3ccc(/C=C/c4ccc(Nc5nc(Nc6ccc(S(=O)(=O)O)cc6)nc(N(CCO)CCO)n5)cc4S(=O)(=O)O)c(S(=O)(=O)O)c3)nc(N(CCO)CCO)n2)cc1 = inactive
17) CN(C)[C@@H](CCOc1cccc2ccccc12)c1ccccc1 = inactive
18) CCCC(=O)OCOC(=O)C1=C(C)NC(C)=C(C(=O)OC)C1c1cccc(Cl)c1Cl (centres undefined) = inactive
19) CCC(C)n1ncn(-c2ccc(N3CCN(c4ccc(OC[C@H]5CO[C@](Cn6cncn6)(c6ccc(Cl)cc6Cl)O5)cc4)CC3)cc2)c1=O (some centres undefined) = inactive

---

Assay: qHTS assay to identify small molecule agonists of the constitutive androstane receptor (CAR) signaling pathway - cell viability counter screen (AID 1224836); note: nearly all actives have a fitted effect of over 45% in size
Conditions: HepG2-CYP2B6-hCAR viability, CellTiter-Fluor, 23 h, PK11195 added to every well; series mostly up to 92.4 µM
Results filed as inconclusive are left out. Active and inactive are the calls of the source. The call rests on the fitted dose curve; in most records, active means well fitted cell-killing curve with a large enough effect in the repeat runs; inconclusive means weak or mixed curves, or effect the other way; inactive means flat fitted curve, though single readings scatter.
Classes used: Yes = active, No = inactive

1) CCO[Si](OCC)(OCC)OCC = No
2) CCCCCCCCCCCCCC[N+](C)(C)C = Yes
3) Cc1c(C)c([N+](=O)[O-])c(C(C)(C)C)c([N+](=O)[O-])c1C = No
4) CC(C)(C)c1csc(-c2cc3cc(OCc4ccccc4CC(=O)O)ccc3o2)n1 = No
5) COc1cc(C)ccc1O = No

---

Target: Nuclear receptor subfamily 1 group I member 2 (Rattus norvegicus)
Experiment: Rat pregnane X receptor (rPXR) activation by small molecules, qHTS assay (AID 1346983); note: % is set by controls: 0 for no effect and ±100 for the full control effect; nearly all actives have a fitted effect of over 20% in size
Conditions: rPXR luciferase reporter cells, One-Glo luminescence, 24 h; hits give high values
Records with an inconclusive call do not appear.
endpoint-name: max activation (%)

1) CCOc1ccc2ccccc2c1C(=O)N[C@@H]1C(=O)N2[C@@H]1SC(C)(C)[C@@H]2C(=O)O = -0.231
2) CC1(C)[C@@H](O)CC[C@]2(C)[C@H]3C(=O)C=C4[C@@H]5C[C@@](C)(C(=O)O)CC[C@]5(C)CC[C@@]4(C)[C@]3(C)CC[C@@H]12 = 1.62
3) CCCCCCCC/C=C\CCCCCCCCN = -1.07
4) C#CC1(O)CC[C@H]2[C@@H]3CCC4=CCCC[C@@H]4[C@H]3CC[C@@]21C (stereo partly specified) = -0.183
5) COc1ccc2cc1Oc1ccc(cc1)C[C@H]1c3c(cc4c(c3Oc3cc5c(cc3OC)CCN(C)[C@@H]5C2)OCO4)CCN1C = -17.4
6) Cc1cc(C(C#N)c2ccc(Cl)cc2)c(Cl)cc1NC(=O)c1cc(I)cc(I)c1O (stereo unspecified) = -15.9

---

Assay: qHTS assay to identify small molecule agonists of H2AX (AID 1224845)
Settings: CHO-K1 phospho-H2AX Ser139 HTRF, 3 h; series mostly up to 154 µM
Results filed as inconclusive are left out. Activity calls are given as the source filed them. Calls come from the whole dose curve; as a rule, active = well fitted activation curve with a large enough effect in the signal ratio in the repeat runs (not every such curve was filed as active); inconclusive = weak or mixed curves; inactive = flat fitted curve, though single readings scatter; the % refers to the signal ratio.
Classes used: Y = active, N = inactive

1. Cc1ccc(C)cc1 = N
2. Cl[Si](Cl)(c1ccccc1)c1ccccc1 = N
3. CNc1ccc([N+](=O)[O-])cc1 = N
4. O=[N+]([O-])c1ccc(F)c(Cl)c1 = N
5. NC(=O)c1cccc([N+](=O)[O-])c1 = N
6. CC(C)(c1cc(Br)c(OCC(Br)CBr)c(Br)c1)c1cc(Br)c(OCC(Br)CBr)c(Br)c1 (configuration not stated) = N
7. CCCC(=O)OCCc1ccccc1 = N
8. CCCCOC(=O)CC = N
9. Clc1sc(Cl)c(Cl)c1Cl = N
10. CCCCCCCC/C=C\CCCCCCCCN = N
11. CCOc1ccc2ccccc2c1C(=O)N[C@@H]1C(=O)N2[C@@H]1SC(C)(C)[C@@H]2C(=O)O = N
12. Sc1nc2ccccc2s1 = N
13. O=C(O)O = Y
14. CCCCNS(=O)(=O)c1ccc(C)cc1 = N
15. CC1=CCC(=C(C)C)CC1 = N
16. O=C(/C=C/c1ccccc1)OC/C=C/c1ccccc1 = N
17. O=C(O)Cc1ccc2c(c1)C(=O)c1ccccc1CO2 = N
18. O=C(Oc1ccccc1)Oc1ccccc1 = N
19. C=C(CC)C(=O)c1ccc(OCC(=O)O)c(Cl)c1Cl = N
20. C#CC1(O)CC[C@H]2[C@@H]3CCC4=CCCC[C@@H]4[C@H]3CC[C@@]21C (some centres not stated) = N
21. CCCCCCCCCCCC(=O)OCC(C)OC(=O)CCCCC(=O)O (configuration not stated) = N
22. CCC(=O)C(=O)CC = N

---

Assay: qHTS assay for small molecule disruptors of the mitochondrial membrane potential - cell viability (AID 720634); note: nearly all actives have a fitted effect of over 20% in size
Conditions: HepG2 viability, ATP luminescence (CellTiter-Glo), 1 h; series mostly up to 83.2 µM
Records with an inconclusive call do not appear. Active and inactive are the calls of the source. The call rests on the fitted dose curve.
Classes used: Y (active), N (inactive)

1) O=S(=O)(O)c1ccccc1/C=C/c1ccc(-c2ccc(/C=C/c3ccccc3S(=O)(=O)O)cc2)cc1 = N
2) CCC(=O)OC(=O)CC = N
3) CCCCCCCCCCCCCC[N+](C)(C)Cc1ccccc1 = Y
4) CCOC(=O)NNc1ccc(N(CC)CC(C)O)nn1 (configuration not stated) = N
5) CCC(COC(=O)CCS)(COC(=O)CCS)COC(=O)CCS = N
6) CCCCOC(=O)CC = N
7) NC(=S)NC(N)=S = N
8) CC[N+](CC)(CC)CCOC(=O)C(C1CCCC1)C1CCCC1 = N
9) CN1CCC[C@@H]1CCO[C@](C)(c1ccccc1)c1ccc(Cl)cc1 = N
10) CC(C)CCOC(=O)/C=C/c1ccccc1 = N
11) CCCCC(CC)CN1CN(CC(CC)CCCC)CC(C)(N)C1 (configuration not stated) = N
12) CC(CCc1ccccc1)NCC(O)c1ccc(O)c(C(N)=O)c1 (configuration not stated) = N
13) Cc1cc(C)c(/C=C2\C(=O)Nc3ccccc32)[nH]1 = N
14) Cc1ccc(N/N=c2\c(=O)cc/c(=N\Nc3ccc(S(=O)(=O)O)cc3)c2=O)c(C)c1 = N
15) C[C@H]1NCc2cc(-c3ccc4c(=O)c(C(=O)O)cn(C5CC5)c4c3OC(F)F)ccc21 = N
16) CCCCCCCCCCCC(=O)OCC(C)OC(=O)CCCCC(=O)O (configuration not stated) = N
17) C=C(C)C(=O)OCCCCCCCCCC = N
18) C#C[C@]1(O)CC[C@H]2[C@@H]3[C@H](C)CC4=C(CCC(=O)C4)[C@H]3CC[C@@]21C = N
19) CCc1cccc(CC)c1NC(=O)CN(CC(=O)O)CC(=O)O = N
20) CC(C)CCCCCOC(=O)CCS = N
21) Clc1sc(Cl)c(Cl)c1Cl = N
22) C[Si](Cl)(c1ccccc1)c1ccccc1 = N
23) CN1CCN(Cc2cc(-c3ccc4[nH]c(=O)oc4c3)co2)[C@@H](c2ccc(F)cc2)C1 = N
24) CCN(CCN)c1cccc(C)c1 = N
25) COc1cc(/C=C/c2ccccc2)oc(=O)c1 = N
26) Nc1ccc(NCCO)c([N+](=O)[O-])c1 = N
27) OC[C@@H](O)[C@@H](O)CO = N
28) CCCCC(CC)COC(=O)CCCCC(=O)OCc1ccccc1 (configuration not stated) = N
29) COc1cccc2c1C(=O)c1c(O)c3c(c(O)c1C2=O)C[C@@](O)(C(C)=O)C[C@@H]3O[C@H]1C[C@H](N)[C@H](O)[C@H](C)O1 = N
30) Clc1ccnc(Cl)n1 = N
31) CC(C)OC(=O)C(O)(CC(=O)O)CC(=O)O = N
32) O=C(O)c1ccc2cc(C(=O)O)ccc2c1 = N
33) CN1CCN2c3ccccc3Cc3ccccc3C2C1 (configuration not stated) = N
34) O=C1CCCCCCCCCCCCCCCO1 = N
35) Nc1cc(Cl)c(O)c(Cl)c1 = N
36) Nc1nc(-c2ccccc2)cs1 = N
37) CCCCCCCCCCOC(=O)c1ccccc1C(=O)OCCCCCCCC = N
38) O=c1[nH]c2ccccc2n1CCCN1CCN(C(c2ccccc2)c2ccccc2)CC1 = N
39) O=C(O)CCN(C1(C(=O)NO)CCCC1)S(=O)(=O)c1ccc(Oc2ccc(F)cc2)cc1 = N
40) C1CCC(SSC2CCCCC2)CC1 = N
41) O=S(=O)(O)c1ccc(N=Nc2c(O)ccc3ccccc23)cc1 = N
42) COc1ccc2cc1Oc1ccc(cc1)C[C@H]1c3c(cc4c(c3Oc3cc5c(cc3OC)CCN(C)[C@@H]5C2)OCO4)CCN1C = N
